System: SF-539
MEASUREMENT NOTES: NCI tumour cell line growth inhibition, 48 h
Activity calls are given as the source filed them. Cut-off read from the data, not from the text of the source: active = GI50 up to about 1.1 µM and inactive = higher.
Give one outcome, nothing more. List: active, inactive

Below are worked cases with known answers.
QUERY: Field: outcome | Entry: CSc1nc2c(c(O)c(C)c(=O)n2C2OCC(OC(C)=O)C(OC(C)=O)C2OC(C)=O)c(=O)n1C (stereo not drawn)
RESULT: inactive

QUERY: Field: outcome | Entry: CC(C)=NC(C(=O)O)C(C)(C)S (stereo not drawn)
RESULT: inactive

---
QUERY: Field: outcome | Entry: `Cc1n[nH]c(=O)n1/N=C/c1ccc([N+](=O)[O-])o1`
RESULT: inactive

QUERY: Field: outcome | Entry: Nc1nccc(NCC2(CO)CC(OCc3ccccc3)C2)n1 (stereo not drawn)
RESULT: inactive

QUERY: Field: outcome | Entry: S=C(N/N=C/c1ccccc1)NC1CC(c2ccccc2)Oc2ccccc21 (stereo not drawn)
RESULT: inactive

QUERY: Field: outcome | Entry: `COc1cc(/C=C/C(=N\NC(=O)c2ccccc2)c2sc(Nc3ccc(Cl)c(Cl)c3)nc2C)ccc1O`
RESULT: inactive

QUERY: Field: outcome | Entry: c1ccc(C2C3=C(CCCC3)Nc3nnnn32)cc1 (stereo not drawn)
RESULT: inactive

QUERY: Field: outcome | Entry: `CN(C)CCOc1ccc([N+](=O)[O-])c2cccnc12`
RESULT: inactive

QUERY: Field: outcome | Entry: COC(O)C12OC3CO[Si](C(C)C)(C(C)C)O[Si](C(C)C)(C(C)C)OC3C1Oc1nc(=O)ccn12 (stereo not drawn)
RESULT: inactive

QUERY: Field: outcome | Entry: `CCCCCCSCC/C(C)=N\OC`
RESULT: inactive

QUERY: Field: outcome | Entry: `O=C(CCC(=O)Nc1ccc(Cl)c(Cl)c1)CC(=O)c1ccc(F)cc1`
RESULT: inactive

----------
System: SK-MEL-2
MEASUREMENT NOTES: NCI tumour cell line growth inhibition, 48 h
Activity calls are given as the source filed them. Rule as the data show it: active = GI50 up to about 1.1 µM and inactive = higher.
Quick reference: GI50 of the listed items.

QUERY: Specify measured GI50 for `O=C(O)Cc1ccc(Oc2nc3ccccc3nc2-c2ccccc2)cc1` .
RESULT: 70 µM (inactive)

QUERY: Specify measured GI50 for CC(Oc1ccc(Oc2cnc3ccc(Cl)cc3n2)cc1)C(=O)O (centres undefined) .
RESULT: > 100 µM (inactive)

---
QUERY: Specify measured GI50 for `O=C(CO)CC(=O)C(=O)Nc1ccccc1` .
RESULT: > 100 µM (inactive)

QUERY: Specify measured GI50 for `O=C(Nc1ccc(Sc2ccc(/N=N/c3c(O)c(S(=O)(=O)O)cc4cc(S(=O)(=O)O)ccc34)cc2)cc1)c1ccc(/N=N/c2c(O)ccc3c(S(=O)(=O)O)cc(S(=O)(=O)O)cc23)cc1` .
RESULT: 27.9 µM (inactive)

QUERY: Specify measured GI50 for CC(C)(C)OC(=O)N[C@H]1CC(O)c2ccccc2N(CC(=O)O)C1=O (some centres undefined) .
RESULT: > 100 µM (inactive)

----------
Test system: OVCAR-5
MEASUREMENT NOTES: NCI tumour cell line growth inhibition, 48 h
Calls of active or inactive are those of the source. No stated cut-off is given here; in the data, active = GI50 up to about 1.1 µM and inactive = higher.
QUANTITY MEASURED: GI50

Check out these entries, answers already filled in.
QUERY: Specify measured GI50 for `O=C1[C@@H](O)[C@@H]2CCCC[C@@]23CCCN13` .
RESULT: > 100 µM (inactive)

QUERY: Specify measured GI50 for `O=c1cc(NNCc2ccccc2)[nH]c(=O)[nH]1` .
RESULT: > 100 µM (inactive)

QUERY: Specify measured GI50 for `O=c1/c(=C/c2ccc3c(c2)OCO3)sc2nnc(-c3ccco3)n12` .
RESULT: > 100 µM (inactive)

QUERY: Specify measured GI50 for `CCOC(=O)c1nc2ccc(C(F)(F)F)cc2nc1NCc1ccc(F)cc1` .
RESULT: 64.3 µM (inactive)

QUERY: Specify measured GI50 for `COc1ccc(/C=C/CO)cc1OC` .
RESULT: > 100 µM (inactive)

---
QUERY: Specify measured GI50 for `CC1(C)NC(=O)N(CCCCCCN2C(=O)NC(C)(C)C2=O)C1=O` .
RESULT: > 100 µM (inactive)

QUERY: Specify measured GI50 for `Nc1ccc(CCN2CCN(c3cccc(C(F)(F)F)c3)CC2)cc1` .
RESULT: > 100 µM (inactive)

QUERY: Specify measured GI50 for Cc1cc(O)c2c(c1)C(C1OC(CO)C(O)C(O)C1O)c1cc(O)cc(O)c1C2=O (configuration not stated) .
RESULT: > 100 µM (inactive)

QUERY: Specify measured GI50 for COc1ccc(/C=C2\CCC(C)C3=C(c4ccc(OC)c(OC)c4)C(C#N)=C(N)OC32)cc1OC (configuration not stated) .
RESULT: 2.75 µM (inactive)

QUERY: Specify measured GI50 for CC1=NCC[N+]1(CCc1ccccc1)Cc1ccccc1 (configuration not stated) .
RESULT: 47.4 µM (inactive)

QUERY: Specify measured GI50 for `CCN1C(=O)C(=C/C=C/c2ccc([N+](=O)[O-])cc2)C(=O)N(CC)C1=S` .
RESULT: > 100 µM (inactive)

QUERY: Specify measured GI50 for `Cc1cccc(Nc2cc(Cl)nc(SCC(=O)O)n2)c1C` .
RESULT: > 100 µM (inactive)

QUERY: Specify measured GI50 for `O=C(CSc1nc2ccc(I)cc2c(=O)n1Cc1ccccc1)Nc1ccccc1` .
RESULT: 30.6 µM (inactive)

QUERY: Specify measured GI50 for `CCCNC(=O)c1cc(NC(=O)c2cc(NC(=O)/C=C/c3ccccc3)c(OC)c(OC)c2)c(OC)c(OC)c1` .
RESULT: 12.7 µM (inactive)

QUERY: Specify measured GI50 for COc1ncnc2c(Cl)c(C(O)c3ccccc3)c(Cl)cc12 (configuration not stated) .
RESULT: 60.5 µM (inactive)

QUERY: Specify measured GI50 for `O=C1c2ccccc2-c2ccc(/N=[N+](/[O-])c3ccc4c(c3)C(=O)c3ccccc3-4)cc21` .
RESULT: > 100 µM (inactive)

QUERY: Specify measured GI50 for CC(Oc1ccc(Oc2cnc3ccc(Cl)cc3n2)cc1)C(=O)O (configuration not stated) .
RESULT: > 100 µM (inactive)

QUERY: Specify measured GI50 for `O=C(CO)CC(=O)C(=O)Nc1ccccc1` .
RESULT: > 100 µM (inactive)

QUERY: Specify measured GI50 for `COc1ccc(OC)c(/C=C/C(=O)C(C)(C)C)c1` .
RESULT: > 10 µM (inactive)

QUERY: Specify measured GI50 for `O=S1(=O)Cc2ccc3c4c2-c2c(ccc5ccc(c-4c25)CS(=O)(=O)C3)C1` .
RESULT: > 100 µM (inactive)

QUERY: Specify measured GI50 for `O=C1CCC[C@]2(CCC[C@@H](O)C2)N1` .
RESULT: > 100 µM (inactive)

QUERY: Specify measured GI50 for CN(C(=O)C12C3C4(C(=O)O)C1(C(=O)N(C)C(C)(C)C)C1C2(C(=O)O)C3(C(=O)N(C)C(C)(C)C)C14C(=O)N(C)C(C)(C)C)C(C)(C)C (configuration not stated) .
RESULT: > 100 µM (inactive)
